inhibition at 1 µM overview
# test.target: MAGL (Mus musculus)
# Construct: Proteomes (mouse brain membrane fraction or cell lysates); from tissue; host or cells: mouse brain membrane fraction (or cell lysates)
# Sequence (O35678 whole entry): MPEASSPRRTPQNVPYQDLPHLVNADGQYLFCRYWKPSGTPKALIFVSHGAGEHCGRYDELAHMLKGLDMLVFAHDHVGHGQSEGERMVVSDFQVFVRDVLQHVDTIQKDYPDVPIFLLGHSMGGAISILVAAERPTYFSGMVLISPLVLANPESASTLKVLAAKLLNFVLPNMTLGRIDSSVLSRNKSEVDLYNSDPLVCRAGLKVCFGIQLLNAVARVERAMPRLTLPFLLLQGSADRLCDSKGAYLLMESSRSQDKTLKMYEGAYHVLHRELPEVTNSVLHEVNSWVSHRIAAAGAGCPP
# assay.remarks: In vitro competitive activity-based protein profiling (mouse), MAGL gel band
# Assay type: biochemical
# experimental.conditions: read-out: MAGL % inh. 1 μM

In [3]: df
Out[3]:
                           molecular_string          test_target  recorded_result
0  CS(=O)(=O)Nc1ccn(C(=O)N2CCN(Cc3ccc(Cl)c(N4CC[C@H](O)C4)c3)CC2)n1  MAGL (Mus musculus)            ≥ 75%
1  CS(=O)(=O)Nc1ccn(C(=O)N2CCN(Cc3cccc(Cl)c3N3CCC4(CCOCC4)C3)CC2)n1  MAGL (Mus musculus)            ≥ 75%
2  CC(=O)Nc1ccn(C(=O)N2CCC3(CCCN3Cc3ccc(C(F)(F)F)cc3OCC(=O)N3CCCC3)CC2)n1  MAGL (Mus musculus)            ≥ 75%
3  CS(=O)(=O)Nc1ccn(C(=O)N2CCN(Cc3ccc(Cl)c(N4CCCC4)c3)CC2)n1  MAGL (Mus musculus)            ≥ 75%
4  CS(=O)(=O)Nc1ccn(C(=O)N2CCC3(CCCN3Cc3ccc(Cl)cc3N3CCCCC3)CC2)n1  MAGL (Mus musculus)        50 to 75%
5  CS(=O)(=O)Nc1ccn(C(=O)N2CCC3(CCCN3Cc3ccc(Cl)cc3N3CCCC3)CC2)n1  MAGL (Mus musculus)        50 to 75%

Here is the next item to consider.
INPUT: inhibition at 1 µM lookup needed for CS(=O)(=O)Nc1ccn(C(=O)N2CCN(Cc3cc(N4CCCC4)ccc3C(F)(F)F)CC2)n1 , thanks.
OUTPUT: ≥ 75%

Values were extracted from patent US10519134B2.
